B1: TRIM39 (parent)
chain: CKACITRWWEDLERDFPCPVCRKT

Variants of: B1
TEST_NAME: protein stability index of a GFP-peptide fusion (GPS, HEK-293T) (PSI 1-6); higher = more stable;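 also: lentivirally expressed fusions sorted by FACS into six bins by GFP to DsRed ratio, PSI derived from sequencing read proportions per bin multiplied by bin number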
CONDITION: c terminus: a fixed tail appended
ENDPOINT_LABEL: protein stability index

| VARIANT_DESCRIPTION | VAL |
| --- | --- |
| K2T | 4.05 |
| T24L | 3.78 |
| K2Y | 4.23 |
| V20Y | 3.73 |
| D15W | 2.72 |
| E10D | 4.11 |
| K2G | 3.59 |
| D11E | 3.68 |
| T6L | 3.58 |
| C4E | 1.88 |
| A3K | 3.06 |
| P19N | 3.29 |
| V20M | 3.37 |
| T24Y | 3.74 |
| E10N | 4.11 |
| E13P | 3.61 |
| C21S | 1.68 |
| D11K | 3.5 |
| K2R | 4.02 |
| I5G | 3.86 |
| R22H | 4.32 |
| P19Y | 2.27 |
